B1: library; a variant is named by its letters at N, in order (parent)
chain: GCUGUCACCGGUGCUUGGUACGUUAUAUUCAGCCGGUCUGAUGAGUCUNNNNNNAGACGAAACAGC

# Variants of: B1
# PROTOCOL: normalized RNA/DNA level with ligand (relative to sTRSVctl = 100) (log10 (% of sTRSVctl)); HEK293T overexpressing SLC46A1; ligand concentration (+) RNA-Seq: 6 mM; higher = less ribozyme self-cleavage, higher mRNA level
# APPLIED_CONDITIONS: with (6R,S)-folinic acid; ligand present: yes
normalized RNA/DNA level with ligand (log10): recorded values
Enter the number alone.

Recorded normalized RNA/DNA level with ligand (log10), per entry:
INSERT INTO assay_data (mutant_id, value_reported) VALUES
  ('AUGCGC', 2.01),
  ('AUGUUU', 2),
  ('GUUGGC', 2.02),
  ('CAGGUU', 2),
  ('ACUUCG', 2.02);

So what does the record say about normalized RNA/DNA level with ligand (log10) for UGUGUU ? 1.97

Record request: normalized RNA/DNA level with ligand (log10) value, item GGCUCG 2.03

Reported normalized RNA/DNA level with ligand (log10), variant UUCAAA : ____ 2.01

Data request, read-out normalized RNA/DNA level with ligand (log10), for CCAUUU 2.04

Please look up its normalized RNA/DNA level with ligand (log10): AGUAUC 2.03

Reported normalized RNA/DNA level with ligand (log10), variant UUUAUG : ____ 1.96

Suppose we examine the variant ACAAAC ; what normalized RNA/DNA level with ligand (log10) value has been reported? 2.02

// query normalized RNA/DNA level with ligand (log10) value for entry CAUGUG 1.99

What normalized RNA/DNA level with ligand (log10) value was documented for this variant, UAAUUA ? 2.01

Reported normalized RNA/DNA level with ligand (log10), variant AGUGAU : ____ 2

Which normalized RNA/DNA level with ligand (log10) reading was recorded for the variant CAUUAU ? 1.98

So what's the measured normalized RNA/DNA level with ligand (log10) for this one? ACAUUG 2.02

Quick one: normalized RNA/DNA level with ligand (log10) for GAGCCG ? 2.03

Reported normalized RNA/DNA level with ligand (log10) for UAACAA : what is it? 2

Report normalized RNA/DNA level with ligand (log10) for AUCCUU please. 2.02

Hey, just so you know, these numbers are from the supplement of paper PMC6757056.
